This section presents compounds with their documented melting point values.

Sample answers from the record:
{"compound": "Cc1ccc(C(=O)c2ccc(-c3noc(C(F)(F)F)n3)s2)nc1", "melting point": "111 to 114 °C"}
{"compound": "Cc1cnc(C(O)c2ccc(-c3noc(C(F)(F)F)n3)s2)cn1 (centres unmarked)", "melting point": "95 to 100 °C"}
{"compound": "Cc1cnc(C(=O)c2ccc(-c3noc(C(F)(F)F)n3)s2)cn1", "melting point": "105 to 110 °C"}
{"compound": "Cc1ccc(Cc2ccc(-c3noc(C(F)(F)F)n3)s2)nc1", "melting point": "40 to 45 °C"}
{"compound": "O=C(c1cnc(Cl)cn1)c1ccc(-c2noc(C(F)(F)F)n2)s1", "melting point": "80 to 85 °C"}
{"compound": "Cc1ccc(C(=O)c2ccc(-c3noc(C(F)(F)F)n3)s2)nc1C", "melting point": "98 to 112 °C"}

// query melting point value for entry "O=C(c1ncccn1)c1ccc(-c2noc(C(F)(F)F)n2)s1"
110 to 116 °C

// query melting point value for entry "O=C(c1cnccn1)c1ccc(-c2noc(C(F)(F)F)n2)s1"
95 to 105 °C
